// provenance: PubChem BioAssay AID2060888

# Tested on: 695427-040-R-J1-PDC complex spheroid viability;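 further: viability read after seven days of drug exposure; 100% = DMSO vehicle control viability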
# experimental.details: Anticancer human tumor 695427-040-R-J1-PDC patient-derived colon adenocarcinoma cell line growth inhibition [RAS]
# test.settings: second compound 0.00949 µM; first compound 0.0316 µM; hits give low values
recorded.endpoint: viability, T/C (%)
Numbers only here, please. The scale is %.

Q: Request the reported viability, T/C associated with CCC(CC)c1cc(NC2CCC(N)C2)n2nccc2n1 (centres undefined) + CCn1c(-c2cc(N3CCN(C)CC3)cnc2C(C)OC)c2c3cc(ccc31)-c1csc(n1)CC(NC(=O)C1CC1C)C(=O)N1CCCC(N1)C(=O)OCC(C)(C)C2
A: 90.3

Q: Same question for CC(=O)OC12COC1CC(O)C1(C)C(=O)C(O)C3=C(C)C(OC(=O)C(O)C(NC(=O)OC(C)(C)C)c4ccccc4)CC(O)(C(OC(=O)c4ccccc4)C21)C3(C)C (centres undefined) + CCn1c(-c2cccnc2C(C)OC)c2c3cc(ccc31)N1CCOC(CC(NC(=O)C(C(C)C)N(C)C(=O)C3(F)CCN(C(=O)C#CC(C)(C)N(C)C)CC3)C(=O)N3CCCC(N3)C(=O)OCC(C)(C)C2)C1 please.
A: 107

Q: Same question for CC1(O)CCCC1n1c(=O)c(C(F)F)cc2cnc(NC3CCN(S(C)(=O)=O)CC3)nc21 (centres undefined) + CCn1c(-c2cc(N3CCN(C)CC3)cnc2C(C)OC)c2c3cc(ccc31)-c1csc(n1)CC(NC(=O)C1CC1C)C(=O)N1CCCC(N1)C(=O)OCC(C)(C)C2 please.
A: 95.7

Q: Same question for O=C(c1ccc(F)c(F)c1Nc1ccc(I)cc1F)N1CC(O)([C@@H]2CCCCN2)C1 + CCn1c(-c2cccnc2C(C)OC)c2c3cc(ccc31)N1CCOC(CC(NC(=O)C(C(C)C)N(C)C(=O)C3(F)CCN(C(=O)C#CC(C)(C)N(C)C)CC3)C(=O)N3CCCC(N3)C(=O)OCC(C)(C)C2)C1 please.
A: 69.9
